tested_on: MAP kinase-interacting serine/threonine-protein kinase 1 (Homo sapiens, UniProt Q9BUB5)
Sequence (Q9BUB5 whole entry): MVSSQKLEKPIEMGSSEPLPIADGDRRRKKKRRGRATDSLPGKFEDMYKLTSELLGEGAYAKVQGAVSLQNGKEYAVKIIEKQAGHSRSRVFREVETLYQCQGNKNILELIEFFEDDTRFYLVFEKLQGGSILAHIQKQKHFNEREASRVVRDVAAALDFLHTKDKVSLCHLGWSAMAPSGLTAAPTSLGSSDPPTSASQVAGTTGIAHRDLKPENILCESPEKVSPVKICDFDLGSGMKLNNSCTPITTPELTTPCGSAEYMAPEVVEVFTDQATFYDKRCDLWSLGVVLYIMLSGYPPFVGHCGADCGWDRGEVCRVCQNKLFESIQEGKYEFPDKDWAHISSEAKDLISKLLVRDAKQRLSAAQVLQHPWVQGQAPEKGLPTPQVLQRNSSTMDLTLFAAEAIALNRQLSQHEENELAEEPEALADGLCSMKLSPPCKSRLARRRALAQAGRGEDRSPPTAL
measurement_description: Inhibition of Mnk1 (unknown origin)
pIC50: −log10 of the molar value.
recorded_endpoint: pIC50

Query: Respond only with pIC50 recorded for CO[C@@H]1COC[C@@H]1Oc1cc(F)ccc1Nc1ncnc2cc(N=S(C)(C)=O)cc(C)c12
Reply: 7.10

1: COc1cc(N=S2(=O)CCC2)cc2ncnc(Nc3cccnc3O[C@H]3COC[C@H]3O)c12
2: COc1cc(N=S(C)(=O)C(C)(C)C)cc2ncnc(Nc3ccc(F)cc3O[C@H]3COC[C@H]3O)c12 (stereo not given in full)
3: CO[C@@H]1COC[C@@H]1Oc1cc(F)ccc1Nc1ncnc2cc(N=S3(=O)CCCC3)cc(Cl)c12
4: O=S1(=Nc2cc(Cl)c3c(Nc4ccc(F)cc4O[C@H]4COC[C@@H]4O)ncnc3c2)CCC1
Query: Sort low-to-high on pIC50, please. List labels; respect the requested ordering.
Reply: 2, 1, 3, 4
